// pIC50 lookup, one value per entry
# Tested on: LAPC4 prostate cancer cells, which express the AKT1 E17K allele
# measurement.notes: Antiproliferative effects in LAPC4 cells (CellTiter Glo, 72 h)
# Assay type: cell-based
# conditions: Homo sapiens, LAPC4, 72 h, read-out: LAPC4 proliferation IC50: GeoMean IC50
pIC50: −log10 of the molar value.

Cn1c(=O)[nH]c2c(C=O)cc(C(=O)N[C@H]3CCc4cc(-n5c(-c6cccnc6N)nc6ccc(-n7cccn7)nc65)ccc43)cc21 ... 7.00 to 8.00
Nc1ncccc1-c1nc2ccc(-n3cc(C=O)cn3)nc2n1-c1ccc2c(c1)CC[C@@H]2NC(=O)c1ccc(O)c(C=O)c1 ... 5.70 to 7.00
Nc1ncccc1-c1nc2ccc(-n3cccn3)nc2n1-c1ccc2c(c1)CC[C@@H]2NC(=O)c1ccc(O)c(C=O)c1F ... 5.70 to 7.00
Nc1ncccc1-c1nc2ccc(-n3cccn3)nc2n1-c1ccc2c(c1)[C@@H](O)C[C@@H]2NC(=O)c1ccc(O)c(C=O)c1 (single isomer, unassigned) ... 5.70 to 7.00
Nc1ncccc1-c1nc2ccc(-c3ccccc3)nc2n1-c1ccc2c(c1)CC[C@@H]2NC(=O)c1cc(Cl)c(O)c(C=O)c1 ... 5.70 to 7.00

QUERY: // pIC50 lookup, key: Nc1ncccc1-c1nc2ccc(-n3nccn3)nc2n1-c1ccc2c(c1)CC[C@@H]2NC(=O)c1cc(F)c(O)c(C=O)c1
RESULT: 7.00 to 8.00

QUERY: // pIC50 lookup, key: CC(=O)Nc1c(F)cc(C(=O)N[C@H]2CCc3cc(-n4c(-c5cccnc5N)nc5ccc(-c6ccccc6)nc54)ccc32)cc1C=O
RESULT: 7.00 to 8.00

QUERY: // pIC50 lookup, key: Nc1ncccc1-c1nc2ccc(-c3nccs3)nc2n1-c1ccc2c(c1)CC[C@@H]2NC(=O)c1cc(C=O)c(O)c(F)c1F
RESULT: > 8.00

QUERY: // pIC50 lookup, key: Nc1ncccc1-c1nc2ccc(-n3cc(C(F)F)cn3)nc2n1-c1ccc2c(c1)CC[C@@H]2NC(=O)c1ccc(O)c(C=O)c1
RESULT: 5.70 to 7.00

QUERY: // pIC50 lookup, key: Nc1ncccc1-c1nc2ccc(-c3ccccn3)nc2n1-c1ccc2c(c1)CC[C@@H]2NC(=O)c1ccc(O)c(C=O)c1
RESULT: 7.00 to 8.00

QUERY: // pIC50 lookup, key: Cn1cc(-c2ccc3nc(-c4cccnc4N)n(-c4ccc5c(c4)CC[C@@H]5NC(=O)c4ccc(O)c(C=O)c4)c3n2)cn1
RESULT: 7.00 to 8.00

QUERY: // pIC50 lookup, key: Nc1ncccc1-c1nc2ccc(-n3cccn3)nc2n1-c1ccc2c(c1)CC[C@@H]2NC(=O)c1cc(C=O)c(O)c(C(F)(F)F)c1
RESULT: 5.70 to 7.00

QUERY: // pIC50 lookup, key: Cc1cc(-n2cccn2)nc2c1nc(-c1cccnc1N)n2-c1ccc2c(c1)CC[C@@H]2NC(=O)c1ccc(O)c(C=O)c1
RESULT: 7.00 to 8.00

Just for reference, patent US20260053834A1 is where these values come from.
